target-system: Endothelin-1 receptor (Homo sapiens)
assay-notes: In vitro binding was measured by the displacement of [125I]ET1 from membranes prepared from MEL cells transfected with cloned human ETA receptors
Assay type: cell membranes
test-readout: IC50 (nM)
Kindly answer with a numeric value in nM, unit omitted.

Here is how some compounds turned out for IC50.
[[record]]
record_smiles = "COc1nc(Br)cnc1NS(=O)(=O)c1ccccc1-c1ccc(CC(C)C)cc1"
meas_value = 39.8

[[record]]
record_smiles = "CCCCCNC(=O)c1cccc(S(=O)(=O)Nc2ncc(Br)nc2OC)c1-c1ccccc1"
meas_value = 3.98

[[record]]
record_smiles = "CNC(=O)c1cccc(S(=O)(=O)Nc2ncc(C)nc2OC)c1-c1ccc(CC(C)C)cc1"
meas_value = 0.501


Request the reported IC50 associated with COCCNC(=O)c1cccc(S(=O)(=O)Nc2ncc(Br)nc2OC)c1-c1ccc(CC(C)C)cc1
1.58

Same question, COc1nc(Br)cnc1NS(=O)(=O)c1ccccc1-c1ccccc1 this time
31.6

Same question, CCCCCNC(=O)c1cccc(S(=O)(=O)Nc2ncc(Br)nc2OC)c1-c1ccc(CC(C)C)cc1 this time
200

Same question, COc1nc(C)cnc1NS(=O)(=O)c1cccc(C(=O)N(C)C)c1-c1ccc(CC(C)C)cc1 this time
2.51

Same question, COc1nc(C)cnc1NS(=O)(=O)c1cccc(C(N)=O)c1-c1ccc(CC(C)C)cc1 this time
1

Same question, CNC(=O)c1cccc(S(=O)(=O)Nc2ncc(Br)nc2OC)c1-c1ccc(CC(C)C)cc1 this time
1.26

Same question, COc1nc(Br)cnc1NS(=O)(=O)c1cccc(C(=O)N(C)C)c1-c1ccc(CC(C)C)cc1 this time
1

* * *

System: Rattus norvegicus
assay-notes: In vivo mean dose ratio (MDR) activity against the pressor response induced by big ET-1 in alderley park rats at 1 hr after (1 mg/kg) oral administration
Format: functional
Listing: MDR of selected compounds
Respond using a number only.

[[record]]
record_smiles = "CNC(=O)c1cccc(S(=O)(=O)Nc2ncc(Br)nc2OC)c1-c1ccc(CC(C)C)cc1"
target_system = "Rattus norvegicus"
meas_value = 2.7

[[record]]
record_smiles = "COc1nc(C)cnc1NS(=O)(=O)c1cccc(C(=O)NCCO)c1-c1ccc(CC(C)C)cc1"
target_system = "Rattus norvegicus"
meas_value = 4.2

[[record]]
record_smiles = "COCCNC(=O)c1cccc(S(=O)(=O)Nc2ncc(Br)nc2OC)c1-c1ccc(CC(C)C)cc1"
target_system = "Rattus norvegicus"
meas_value = 2.1

[[record]]
record_smiles = "COCCNC(=O)c1cccc(S(=O)(=O)Nc2ncc(C)nc2OC)c1-c1ccc(CC(C)C)cc1"
target_system = "Rattus norvegicus"
meas_value = 3.2

[[record]]
record_smiles = "CNC(=O)c1cccc(S(=O)(=O)Nc2ncc(C)nc2OC)c1-c1ccc(CC(C)C)cc1"
target_system = "Rattus norvegicus"
meas_value = 3.2


Request the reported MDR associated with COc1nc(C)cnc1NS(=O)(=O)c1cccc(C(=O)N(C)C)c1-c1ccc(CC(C)C)cc1
1.6

Same question, COc1nc(C)cnc1NS(=O)(=O)c1cccc(C(N)=O)c1-c1ccc(CC(C)C)cc1 this time
2.4

* * *

target-system: Endothelin-1 receptor (Homo sapiens, UniProt P25101)
Sequence (P25101 whole entry): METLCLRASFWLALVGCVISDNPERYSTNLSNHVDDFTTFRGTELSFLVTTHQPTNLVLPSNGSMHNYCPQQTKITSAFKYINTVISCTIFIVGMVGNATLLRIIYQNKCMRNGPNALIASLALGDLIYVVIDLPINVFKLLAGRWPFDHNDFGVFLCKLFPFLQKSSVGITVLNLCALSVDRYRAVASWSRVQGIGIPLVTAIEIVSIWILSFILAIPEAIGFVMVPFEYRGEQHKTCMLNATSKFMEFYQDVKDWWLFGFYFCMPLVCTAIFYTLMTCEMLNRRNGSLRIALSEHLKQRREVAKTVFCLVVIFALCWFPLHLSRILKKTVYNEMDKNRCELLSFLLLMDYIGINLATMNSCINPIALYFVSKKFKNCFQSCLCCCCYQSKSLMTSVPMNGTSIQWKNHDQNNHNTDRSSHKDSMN
assay-notes: In vitro binding was measured by the displacement of [125I]ET1 from membranes prepared from MEL cells transfected with cloned human ETA receptors
test-readout: IC50 (nM)
Kindly answer with a numeric value in nM, unit omitted.

Here is how some compounds turned out for IC50.
[[record]]
record_smiles = "COCCNC(=O)c1cccc(S(=O)(=O)Nc2ncc(C)nc2OC)c1-c1ccc(CC(C)C)cc1"
test_readout = "IC50"
units = "nM"
meas_value = 0.501

[[record]]
record_smiles = "COc1nc(Br)cnc1NS(=O)(=O)c1cccc(C(N)=O)c1-c1ccc(CC(C)C)cc1"
test_readout = "IC50"
units = "nM"
meas_value = 0.794

[[record]]
record_smiles = "CNC(=O)c1cccc(S(=O)(=O)Nc2ncc(Br)nc2OC)c1-c1ccccc1"
test_readout = "IC50"
units = "nM"
meas_value = 39.8

[[record]]
record_smiles = "COc1nc(Br)cnc1NS(=O)(=O)c1cccc(C(N)=O)c1-c1ccccc1"
test_readout = "IC50"
units = "nM"
meas_value = 39.8


Then there is this compound:
Request the reported IC50 associated with COc1nc(C)cnc1NS(=O)(=O)c1cccc(C(=O)NCCO)c1-c1ccc(CC(C)C)cc1
0.631
